ASSAYED_SYSTEM: SARS-CoV-2 full-length spike protein on pseudotyped lentivirus (SARS-CoV-2, UniProt P0DTC2 14-1273)
ASSAY_OVERVIEW: cell-based or functional assay
Each entry below carries its recorded IC50 (pseudoneutralization).

# BINDER, IC50 (pseudoneutralization)
rows = [
    ("anti-SARS-CoV-2 antibody 481 (antibody, V domains shown) VH: EVQLVESGGGLIQPGGSLRLSCAASGFTVSSNYMSWVRQAPGKGLEWVSVIYSGGSTFYADSVKGRFTISRDNSKNTLYLQMNSLRAEDTAVYYCAREVAGTYDYWGQGTLVTVSS VL: DIQMTQSPSSVSASVGDRVTITCRASQGISSWLAWYQQKPGKAPKLLIYAASSLQSGVPSRFSGSGSGTDFTLTISSLQPEDFATYYCQQANSFPGGTFGPGTKVDIKR", "17.2 µg/mL"),
    ("anti-SARS-CoV-2 antibody 292 (antibody, V domains shown) VH: EVQLVESGGGLIQPGGSLRLSCAASGFTVSSNYMSWVRQAPGKGLEWVSVIYSGGSTYYADSVKGRFTISRDNSKNTLYLQMNSLRAEDTAVYYCARDLQGGGGPWGQGTLVTVSS VL: AIQMTQSPSSLSASVGDRVTITCRASQGIRNDLGWYQQKPGKAPKLLIYAASSLQSGVPSRFSGSGSGTDFTLTISSLQPEDFATYYCLQDYNYPRTFGQGTKVEIKR", "> 50 µg/mL"),
    ("anti-SARS-CoV-2 antibody 447 (antibody, V domains shown) VH: EVQLVESGGGLVQPGGSLRLSCAASGFTVSSNYMSWVRQAPGKGLEWVSVIYSGGSTYYADSVKGRFTISRDNSKNTLYLQMNSLRAEDTAVYYCARDKSSGSGPWGQGTLVTVSS VL: AIQMTQSPSSLSASVGDRVTITCRASQGIRNDLGWYQQKPGKAPKLLIYAASSLQSGVPSRFSGSGSGTDFTLTISSLQPEDFATYYCLQDYNYPRTFGQGTKVEIKR", "> 50 µg/mL"),
    ("anti-SARS-CoV-2 antibody 506 (antibody, V domains shown) VH: QITLKESGPTLVKPTQTLTLTCTFSGFSLSTSGVGVGWIRQPPGKALEWLALIYWDDDKRYSPSLKSRLTITKDTSKNQVVLTMTNMDPVDTATYYCAHHSLSSIFDYWGQGTLVTVSS VL: QSALTQPASVSGSPGQSITISCTGTSSDVGDYNYVSWYQQHPGKAPKLMIYEVSNRPSGVSNRFSGSKSGNTASLTISGLQAEDEADYYCSSYTSSSTVFGGGTKLTVLG", "> 50 µg/mL"),
]
